Experimental Details: Pharmacokinetic study in rats (IV, PO)
Assay type: in vivo, Sprague-Dawley rats
Assay Context: male, Sprague-Dawley; Table B; Rat Plasma; PO; 30 mg/kg
Readout Type: half-life (h)
Value expressed in h; do not type the unit.

Query: Respond only with half-life recorded for O=C(N[C@H]1CC[C@@H](Oc2nc(N3CCOCC3)cc3ncccc23)CC1)c1ncccn1
Reply: 5.24

* * *

Recorded hepatocyte CLint at 1 uM, one value per entry.
Experimental Details: Hepatocyte stability assay, mouse hepatocytes
Format: in vitro ADME
Assay Context: male, CD-1, mouse, cryopreserved hepatocytes, pH 7.3, Example 11

Query: Supply recorded hepatocyte CLint at 1 uM for CS(=O)(=O)Nc1cnc2cc(N3CCOCC3)nc(O[C@H]3CC[C@@H](Nc4ncc(C(F)(F)F)cn4)CC3)c2c1 here.
Reply: > 8.2 µL/min/1e6 cells

Query: Item CS(=O)(=O)Nc1cnc2cc(N3CCOCC3)nc(O[C@H]3CC[C@@H](n4ccnc4)CC3)c2c1 : provide hepatocyte CLint at 1 uM
Reply: > 8.2 µL/min/1e6 cells

Query: Answer with the recorded hepatocyte CLint at 1 uM for the compound listed here: CS(=O)(=O)Nc1cnc2cc(N3CCOCC3)nc(O[C@H]3CC[C@@H](Nc4ncc(C#N)cn4)CC3)c2c1
Reply: > 8.2 µL/min/1e6 cells

Query: Please report the measured hepatocyte CLint at 1 uM for CS(=O)(=O)Nc1cnc2cc(N3CCOCC3)nc(O[C@H]3CC[C@@H](Nc4ncccn4)CC3)c2c1
Reply: > 8.2 µL/min/1e6 cells

* * *

# key: entry, value: IC50
Assayed System: DNA-PK phosphorylation at Serine 2056 (Homo sapiens)
Construct: host or cells: FaDu
Experimental Details: Cellular Assay for Inhibition of DNA-PK Phosphorylation at Serine 2056 (FaDu cells, neocarzinostatin, sandwich ELISA)
Assay type: cell-based
Assay Context: Table 3

Solved cases (3 shown):
> print(dat)
                                   compound                            assayed.system      data.value
1  Cn1cc([C@H]2CC[C@@H](Oc3nc(N4CCOCC4)cc4ncc(NS(C)(=O)=O)cc34)CC2)cn1 [LFA1062]  DNA-PK phosphorylation at Serine 2056 (Homo sapiens)  100 to 1000 nM
2  COc1cncc(N[C@H]2CC[C@@H](Oc3nc(N4CCOCC4)cc4ncc(NS(C)(=O)=O)cc34)CC2)c1 [LFA1013]  DNA-PK phosphorylation at Serine 2056 (Homo sapiens)  100 to 1000 nM
3  CS(=O)(=O)Nc1cnc2cc(N3CCOCC3)nc(O[C@H]3CC[C@@H](c4cnccn4)CC3)c2c1 [LFA1064]  DNA-PK phosphorylation at Serine 2056 (Homo sapiens)  100 to 1000 nM

Next up:
Query: Identify IC50 associated with the compound Cc1cccnc1N[C@H]1CC[C@@H](Oc2nc(N3CCOCC3)cc3ncc(NS(C)(=O)=O)cc23)CC1 [LFA1003]
Reply: < 100 nM

* * *

Tested on: pH2AX induction in HCT116 ATM−/− multicellular tumour spheroids
Experimental Details: Prodrug radiation sensitization in multicellular tumour spheroids (pH2AX induction following radiation)
Format: cell-based
Assay Context: 20 Gy, 5% O2, outer layers, read-out: Prodrug 5% O2 Outer layers EC50
EC50 by entry:

> print(dat)
                                   molecule        data.value
1  Cn1c(Cn2cnc(-c3cnc4cc(N5CCOCC5)nc(OC5CCC(Nc6ncccn6)CC5)c4c3)n2)cnc1[N+](=O)[O-] (centres unmarked) [LFA138]  1000 to 10000 nM

Query: Retrieve EC50 measured for Cn1c(Cn2ncnc2-c2cnc3cc(N4CCOCC4)nc(O[C@H]4CC[C@@H](Nc5ncccn5)CC4)c3c2)cnc1[N+](=O)[O-] [LFA139] and print it.
Reply: 500 to 1000 nM
